Assay: Neuromast toxicity assay (DASPEI staining)
Settings: zebrafish, zebrafish embryos 5 dpf, neuromasts (hair cells), other: embryos exposed to the drug in 24-well plates, Neuromast (CC50), zebrafish embryos 5 dpf, 24 hours exposure; maximum of two measurements
EXPERIMENTAL ENDPOINT: CC50 at 24 h (µM)
Write the value in µM as a bare number.

### Prompt Give me measured CC50 at 24 h, please, for this molecule: CN[C@@H]1[C@@H](O)[C@@H](O[C@@H]2[C@@H](O)[C@H](O[C@H]3O[C@H](CO)[C@@H](O)[C@H](O)[C@H]3N)[C@@H](N)C[C@H]2N)OC[C@]1(C)O (stereo in doubt)
### Response 14
